Measured Urine concentration, listed per entry.
assay: Urinary excretion after intravenous C3G; type: in vivo, Wistar rats; conditions: 20 min after i.v. 668 nmol C3G
Numbers only; they are read as nmol/g.

compound | value.observed
OC[C@H]1O[C@@H](Oc2cc3c(O)cc(O)cc3[o+]c2-c2cc(O)c(O)c(O)c2)[C@H](O)[C@@H](O)[C@@H]1O [D3G, Delphinidin-3-O-β-glucoside] | 0.03
OC[C@H]1O[C@@H](Oc2cc3c(O)cc(O)cc3[o+]c2-c2ccc(O)c(O)c2)[C@H](O)[C@@H](O)[C@@H]1O [C3G, Cyanidin-3-O-β-glucoside] | 5.66
COc1cc(-c2[o+]c3cc(O)cc(O)c3cc2O[C@@H]2O[C@H](CO)[C@@H](O)[C@H](O)[C@H]2O)ccc1O [PN3G, Peonidin-3-O-β-glucoside] | 5.16

Could you now look at the following compound, please?
Consider the compound OC[C@H]1O[C@@H](Oc2cc3c(O)cc(O)cc3[o+]c2-c2ccc(O)cc2)[C@H](O)[C@@H](O)[C@@H]1O [PG3G, Pelargonidin-3-O-β-glucoside] and give its recorded Urine concentration.
0.02098

Attribution: paper PMC4786809
